src = patent US8927500B2

Biological target: MDM2 (Homo sapiens, UniProt Q00987)
Sequence (Q00987 1-125): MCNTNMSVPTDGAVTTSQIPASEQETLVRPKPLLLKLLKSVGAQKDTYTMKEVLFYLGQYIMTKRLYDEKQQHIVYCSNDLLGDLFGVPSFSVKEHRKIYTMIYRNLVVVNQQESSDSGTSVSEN
Experiment: Competitive fluorescence polarization assay for MDM2
Format: binding
Settings: Ki (MDM2), competitive FP assay, MDM2
Where a SMILES comes first, the peptide text is derived from it. Bridges are numbered along the chain shown (N, C = ends). [ ]: non-standard residue; d: D form. R8 = C=CCCCCCC[C@@](C)(N)C(=O)O; S5 = C=CCCC[C@](C)(N)C(=O)O

| Compound | Ki |
| --- | --- |
| CC(=O)N[C@@H](CC(C)C)C(=O)N[C@H](C(=O)N[C@@H](Cc1ccccc1)C(=O)N[C@]1(C)CCCCCCC=CCCC[C@@](C)(C(=O)N[C@@H](CO)C(=O)N[C@@H](C)C(=O)N[C@@H](C)C(N)=O)NC(=O)[C@H](CC(C)C)NC(=O)[C@H](C)NC(=O)[C@H](C)NC(=O)[C@H](Cc2c[nH]c3ccccc23)NC(=O)[C@H](Cc2c[nH]cn2)NC(=O)[C@H](C)NC1=O)[C@@H](C)O [compound 197] (Ac-LTF[R8]AHWAAL[S5]SAA-NH2; staple 4-11) | < 10 nM |

* * *

Molecular target: MDM2 (Homo sapiens)
Assay: Competitive fluorescence polarization assay for MDM2
Assay type: binding
Details: competitive FP assay, MDM2; read-out: IC50 (MDM2)
// IC50 lookup, one value per entry

| Compound | IC50 |
| --- | --- |
| CCCC[C@H](NC(=O)[C@H](C)NC(=O)[C@H](C)NC(=O)[C@]1(C)CCCC=CCCCCCC[C@@](C)(NC(=O)[C@H](Cc2ccccc2)NC(=O)[C@@H](NC(=O)[C@H](CC(C)C)NC(C)=O)[C@@H](C)O)C(=O)N[C@@H](C)C(=O)N[C@@H](Cc2ccc(C(=O)O)cc2)C(=O)N[C@@H](Cc2c[nH]c3ccccc23)C(=O)N[C@@H](C)C(=O)N[C@@H](CCC(N)=O)C(=O)N[C@@H](CCC(C)C)C(=O)N1)C(=O)N[C@@H](C)C(N)=O (single isomer, unassigned) [compound 310] | 0.01 to 0.1 µM |
| CC(=O)N[C@@H](CC(C)C)C(=O)N[C@H](C(=O)N[C@@H](Cc1ccccc1)C(=O)N[C@]1(C)CCCCCCC=CCCC[C@@](C)(C(=O)N[C@@H](C)C(=O)N[C@@H](C)C(=O)N[C@@H](C)C(=O)N[C@@H](C)C(=O)N[C@@H](C)C(=O)N[C@H](C)C(N)=O)NC(=O)[C@H](CC2CCC2)NC(=O)[C@H](CCC(N)=O)NC(=O)[C@H](C)NC(=O)[C@H](Cc2c[nH]c3ccccc23)NC(=O)[C@H](Cc2ccc(O)cc2)NC(=O)[C@H](CCC(=O)O)NC1=O)[C@@H](C)O (single isomer, unassigned) [compound 347] | 0.01 to 0.1 µM |

* * *

Target: MDM2 (Homo sapiens, UniProt Q00987)
Experiment: Competitive fluorescence polarization assay for MDM2
Assay type: binding
Settings: competitive FP assay, MDM2; read-out: IC50 (MDM2)
Where a SMILES comes first, the peptide text is derived from it. Bridges are numbered along the chain shown (N, C = ends). [ ]: non-standard residue; d: D form. Phe(3,4-F2) = N[C@@H](Cc1ccc(F)c(F)c1)C(=O)O; R8 = C=CCCCCCC[C@@](C)(N)C(=O)O; Cba = N[C@@H](CC1CCC1)C(=O)O; S5 = C=CCCC[C@](C)(N)C(=O)O; Nle = CCCC[C@H](N)C(=O)O
// IC50 lookup, one value per entry
Property measured: IC50

| Compound | Result |
| --- | --- |
| CCCC[C@H](NC(=O)[C@H](C)NC(=O)[C@H](CO)NC(=O)[C@]1(C)CCCC=CCCCCCC[C@@](C)(NC(=O)[C@H](Cc2ccc(F)c(F)c2)NC(=O)[C@@H](NC(=O)[C@H](CC(C)C)NC(C)=O)[C@@H](C)O)C(=O)N[C@@H](CCC(=O)O)C(=O)N[C@@H](Cc2ccc(O)cc2)C(=O)N[C@@H](Cc2c[nH]c3ccccc23)C(=O)N[C@@H](C)C(=O)N[C@@H](CCC(N)=O)C(=O)N[C@@H](CC2CCC2)C(=O)N1)C(=O)N[C@@H](C)C(N)=O [compound 243] (Ac-LT[Phe(3,4-F2)][R8]EYWAQ[Cba][S5]SA[Nle]A-NH2; staple 4-11) | 0.01 to 0.1 µM |
| CCCC[C@H](NC(=O)[C@H](C)NC(=O)[C@H](C)NC(=O)[C@]1(C)CCCC=CCCCCCC[C@@](C)(NC(=O)[C@H](Cc2ccccc2)NC(=O)[C@@H](NC(=O)[C@H](CC(C)C)NC(C)=O)[C@@H](C)O)C(=O)N[C@@H](C)C(=O)N[C@@H](Cc2ccc(O)cc2)C(=O)N[C@@H](Cc2c[nH]c3ccccc23)C(=O)N[C@@H](C)C(=O)N[C@@H](CCC(N)=O)C(=O)N[C@@H](CC(C)C)C(=O)N1)C(=O)N[C@@H](C)C(=O)NCCC(C)(C)C (single isomer, unassigned) | 0.01 to 0.1 µM |

* * *

Target: MDM2 (Homo sapiens, UniProt Q00987)
Assay: Competitive fluorescence polarization assay for MDM2
Assay type: binding
Conditions: competitive FP assay, MDM2; read-out: Ki (MDM2)
pKi: −log10 of the molar value. Where a SMILES comes first, the peptide text is derived from it. Bridges are numbered along the chain shown (N, C = ends). [ ]: non-standard residue; d: D form. Trp(6-Cl) = N[C@@H](Cc1c[nH]c2cc(Cl)ccc12)C(=O)O; R8 = C=CCCCCCC[C@@](C)(N)C(=O)O; S5 = C=CCCC[C@](C)(N)C(=O)O; Nle = CCCC[C@H](N)C(=O)O
// pKi lookup, one value per entry

| Compound | pKi |
| --- | --- |
| CC(=O)N[C@@H](Cc1ccccc1)C(=O)N[C@]1(C)CCCCCCC=CCCC[C@@](C)(C(=O)N[C@@H](C)C(=O)N[C@@H](C)C(=O)N[C@@H](C)C(=O)N[C@@H](C)C(=O)N[C@@H](C)C(=O)N[C@@H](C)C(=O)N[C@H](C)C(N)=O)NC(=O)[C@H](CC(C)C)NC(=O)[C@H](C)NC(=O)[C@H](CCC(=O)O)NC(=O)[C@H](Cc2c[nH]c3cc(Cl)ccc23)NC(=O)[C@H](Cc2ccc(O)cc2)NC(=O)[C@H](C)NC1=O [compound 339] (Ac-F[R8]AY[Trp(6-Cl)]EAL[S5]AAAAAA[dA]-NH2; staple 2-9) | > 8.00 |
| CC[C@H](C)[C@H](NC(C)=O)C(=O)N[C@H](C(=O)N[C@@H](Cc1ccccc1)C(=O)N[C@]1(C)CCCCCCC=CCCC[C@@](C)(C(=O)N[C@@H](C)C(=O)N[C@@H](Cc2c[nH]cn2)C(=O)N[C@@H](Cc2ccccc2)C(=O)N[C@@H](C)C(N)=O)NC(=O)[C@H](CC(C)C)NC(=O)[C@H](CCC(N)=O)NC(=O)[C@H](C(C)C)NC(=O)[C@H](Cc2c[nH]c3ccccc23)NC(=O)[C@H](Cc2ccc(O)cc2)NC(=O)[C@H](CCC(=O)O)NC1=O)[C@@H](C)O [compound 192] (Ac-ITF[R8]EYWVQL[S5]AHFA-NH2; staple 4-11) | > 8.00 |
| CC(=O)N[C@@H](CCC(=O)O)C(=O)N[C@H](C(=O)N[C@@H](Cc1ccccc1)C(=O)N[C@]1(C)CCCCCCC=CCCC[C@@](C)(C(=O)N[C@@H](CO)C(=O)N[C@@H](Cc2c[nH]c3ccccc23)C(=O)N[C@@H](C)C(N)=O)NC(=O)[C@H](CC(C)C)NC(=O)[C@H](CCC(N)=O)NC(=O)[C@H](C)NC(=O)[C@H](Cc2c[nH]c3ccccc23)NC(=O)[C@H](Cc2ccc(O)cc2)NC(=O)[C@H](CCCCN)NC1=O)[C@@H](C)O [compound 129] (Ac-ETF[R8]KYWAQL[S5]SWA-NH2; staple 4-11) | > 8.00 |
| C=CCCCCCC[C@@](C)(NC(=O)[C@H](Cc1ccccc1)NC(=O)[C@@H](NC(=O)[C@H](CC(C)C)NC(C)=O)[C@@H](C)O)C(=O)N[C@@H](C)C(=O)N[C@@H](Cc1ccc(O)cc1)C(=O)N[C@@H](Cc1c[nH]c2ccccc12)C(=O)N[C@@H](C)C(=O)N[C@@H](CCC(N)=O)C(=O)N[C@@H](CC(C)C)C(=O)N[C@@](C)(CCCC=C)C(=O)N[C@@H](C)C(=O)N[C@@H](C)C(=O)N[C@@H](CCCC)C(=O)N[C@@H](C)C(N)=O [compound 411] | 6.00 to 7.00 |
| CCCC[C@H](NC(=O)[C@H](Cc1c[nH]cn1)NC(=O)[C@H](Cc1c[nH]cn1)NC(=O)[C@]1(C)CCCC=CCCCCCC[C@@](C)(NC(=O)[C@H](Cc2ccccc2)NC(C)=O)C(=O)N[C@@H](C)C(=O)N[C@@H](Cc2ccc(O)cc2)C(=O)N[C@@H](Cc2c[nH]c3ccccc23)C(=O)N[C@@H](C)C(=O)N[C@@H](CCC(N)=O)C(=O)N[C@@H](CC(C)C)C(=O)N1)C(=O)N[C@@H](CC(C)C)C(N)=O [compound 38] (Ac-F[R8]AYWAQL[S5]HH[Nle]L-NH2; staple 2-9) | 6.00 to 7.00 |
| CCCC[C@H](NC(=O)[C@H](C)NC(=O)[C@H](C)NC(=O)[C@]1(C)CCCC=CCCCCCC[C@@](C)(NC(=O)[C@H](Cc2ccccc2)NC(=O)[C@@H](NC(=O)[C@H](CC(C)C)NC(C)=O)[C@@H](C)O)C(=O)N[C@@H](C)C(=O)N[C@@H](Cc2ccc(O)cc2)C(=O)N[C@@H](Cc2c[nH]c3ccccc23)C(=O)N[C@@H](C)C(=O)N[C@@H](CCC(N)=O)C(=O)N[C@@H](CC(C)C)C(=O)N1)C(=O)N[C@@H](C)C(=O)NCCC (single isomer, unassigned) [compound 423] | > 8.00 |
| CC[C@H](C)[C@H](NC(=O)[C@H](C)NC(=O)[C@H](C)NC(=O)[C@]1(C)CCC/C=C/CCCCCC[C@@](C)(NC(=O)[C@H](Cc2ccccc2)NC(=O)[C@@H](NC(=O)[C@H](CC(C)C)NC(C)=O)[C@@H](C)O)C(=O)N[C@@H](C)C(=O)N[C@@H](Cc2ccc(O)cc2)C(=O)N[C@@H](Cc2c[nH]c3ccccc23)C(=O)N[C@@H](C)C(=O)N[C@@H](CCC(N)=O)C(=O)N[C@@H](CC(C)C)C(=O)N1)C(=O)N[C@H](C)C(N)=O [compound 71] | > 8.00 |
| CC[C@H](C)[C@H](NC(=O)[C@H](C)NC(=O)[C@H](C)NC(=O)[C@]1(C)CCCC=CCCCCCC[C@@](C)(NC(=O)[C@H](Cc2ccccc2)NC(=O)[C@@H](NC(=O)[C@H](CC(C)C)NC(C)=O)[C@@H](C)O)C(=O)N[C@@H](C)C(=O)N[C@@H](Cc2ccc(O)cc2)C(=O)N[C@@H](Cc2c[nH]c3ccccc23)C(=O)N[C@@H](C)C(=O)N[C@@H](C)C(=O)N[C@@H](CC(C)C)C(=O)N1)C(=O)N[C@@H](C(N)=O)C(C)C (single isomer, unassigned) [compound 77] | > 8.00 |
